The values you see were collected from patent US20260242478A1.

The reader will find reported CD28 scFv signal in presence of CD28 values listed item by item below.
# Target of assay: T1, Anti-CD28 scFv (VH - linker 1 - VL) (biotinylated (site not stated))
# T1 construct: Biotinylated scFv captured on neutravidin coated plates in the panning ELISA
# T1 sequence (scFv, as listed by the source): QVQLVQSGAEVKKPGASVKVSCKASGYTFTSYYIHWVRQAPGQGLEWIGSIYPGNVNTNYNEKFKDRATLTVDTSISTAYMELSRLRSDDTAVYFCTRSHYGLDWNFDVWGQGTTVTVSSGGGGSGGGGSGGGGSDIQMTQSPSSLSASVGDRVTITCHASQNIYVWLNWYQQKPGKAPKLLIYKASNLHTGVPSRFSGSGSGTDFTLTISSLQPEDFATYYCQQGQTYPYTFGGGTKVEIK
# Test name: phage ELISA as above, wells pre-incubated with soluble CD28 (competitor);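 note: ELISA of crude clonal phage supernatants added to wells pre-treated with soluble CD28 in blocking buffer, bound phage read out with HRP-conjugated anti-M13 antibody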
Simply state the number, no unit and no words.

- Binder: "MDWCPRYLWVDCFA [Phage-372]"
  CD28 scFv signal in presence of CD28: 0.218
- Binder: "MDWCPRSLWAQCFY [Phage-364]"
  CD28 scFv signal in presence of CD28: 0.14
- Binder: "MDWCPSDMWANCFF [Phage-389]"
  CD28 scFv signal in presence of CD28: 0.316

Please fill in: CD28 scFv signal in presence of CD28 reported for MDWCPRILWSDCFN [Phage-373] = 0.113

Please fill in: CD28 scFv signal in presence of CD28 reported for ILRCQMNLQDECLN [Phage-385] = 0.077
